The values you see were collected from patent US11400107B2.

- Test system: advance progressive cancers refractory to, or relapsed on, all conventional therapies
- METHOD_SUMMARY: ProGem1 dose escalation clinical study of NUC-1031
- Assay type: in vivo, human
- CONDITION_DETAILS: Patient 027, ovarian cancer; day 7 after Cycle 1 Day 1 at 725 mg/m^2 (96 at baseline)
MEASURE: ALT level (U/L)

{"MOLECULE": "C[C@H](NP(=O)(OC[C@H]1O[C@@H](n2ccc(N)nc2=O)C(F)(F)[C@@H]1O)Oc1ccccc1)C(=O)OCc1ccccc1 (stereo partly shown)", "TARGET_OR_SYSTEM": "advance progressive cancers refractory to, or relapsed on, all conventional therapies", "MEASURE": "ALT level", "ASSAY_VALUE": 256}
